# test: Ratio of drug level in bone to serum in patient with bone and joint infection at 60 to 80 mg/kg/day, iv administered as continuous infusion for 42 days
# Type: ADME, organism-based
# Parameters: route intravenous
# reported_conditions: human
observation_type: Kp at 1008 h
Give your answer as a number; write no unit.

Ask: Requested field: Kp at 1008 h. Item: Cc1nnc(SCC2=C(C(=O)O)N3C(=O)[C@@H](NC(=O)Cn4cnnn4)[C@H]3SC2)s1 [CEFAZOLIN]
Reply: 0.25

====

# test: Drug level in patient serum with bone and joint infection at 60 to 80 mg/kg/day, iv administered as continuous infusion for 42 days measured from day 11 to 21 by agar disk diffusion assay
# Format: ADME, organism-based
# Parameters: route intravenous
# reported_conditions: human, read-out: Drug uptake
observation_type: concentration at 1008 h (µg/mL)
// return numeric value only (unit: µg/mL, not printed)

Ask: Requested field: concentration at 1008 h. Item: Cc1nnc(SCC2=C(C(=O)O)N3C(=O)[C@@H](NC(=O)Cn4cnnn4)[C@H]3SC2)s1
Reply: 57

====

# test: Drug level in patient serum with bone and joint infection at 60 to 80 mg/kg/day, iv administered as continuous infusion for 42 days measured from day 2 to 10 by agar disk diffusion assay
# Type: ADME, organism-based
# Parameters: route intravenous
# reported_conditions: human, read-out: Drug uptake
observation_type: concentration at 1008 h

Ask: Requested field: concentration at 1008 h. Item: Cc1nnc(SCC2=C(C(=O)O)N3C(=O)[C@@H](NC(=O)Cn4cnnn4)[C@H]3SC2)s1
Reply: 63 µg/mL
